// data source = patent US10093629B2

Target: RORγt (Homo sapiens)
Sequence (P51449 1-497 isoform P51449-2): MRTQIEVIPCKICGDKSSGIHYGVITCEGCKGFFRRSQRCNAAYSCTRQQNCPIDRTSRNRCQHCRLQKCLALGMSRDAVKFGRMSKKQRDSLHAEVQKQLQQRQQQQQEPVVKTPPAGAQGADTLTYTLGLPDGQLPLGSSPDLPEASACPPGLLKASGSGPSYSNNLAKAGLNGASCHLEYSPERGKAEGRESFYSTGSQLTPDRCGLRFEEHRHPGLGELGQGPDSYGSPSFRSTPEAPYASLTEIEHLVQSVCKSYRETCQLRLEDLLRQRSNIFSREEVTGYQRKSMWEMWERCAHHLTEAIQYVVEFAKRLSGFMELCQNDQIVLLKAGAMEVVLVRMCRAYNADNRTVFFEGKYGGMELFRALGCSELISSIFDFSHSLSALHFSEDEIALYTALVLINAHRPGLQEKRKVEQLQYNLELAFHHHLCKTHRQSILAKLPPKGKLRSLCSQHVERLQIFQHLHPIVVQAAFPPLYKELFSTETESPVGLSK
Experiment: Jurkat reporter test (human IL-17 ROR response element luciferase, RORγt vector)
Format: cell-based
Conditions: Jurkat, test compound 3 μM; Jurkat cells; read-out: luminescence level inhibitory rate at test compound 3 μM

[
  {
    "STRUCTURE_AS_SMILES": "COC(=O)C[C@H]1C[C@@H](C(=O)N2CCc3nc(OC)ccc3[C@@H]2C(=O)Nc2cc(F)c3c(c2)CCC3(C)C)C1",
    "STUDY_TARGET": "RORγt (Homo sapiens)",
    "inhibition at 3 µM": "101%"
  },
  {
    "STRUCTURE_AS_SMILES": "COc1ccc2c(n1)CCN(C(=O)[C@H]1C[C@@H]1CC(=O)O)[C@H]2C(=O)Nc1cc(F)c2c(c1)CCC2(C)C",
    "STUDY_TARGET": "RORγt (Homo sapiens)",
    "inhibition at 3 µM": "97%"
  },
  {
    "STRUCTURE_AS_SMILES": "CCOc1ccc2c(c1)CCN(C(=O)[C@H]1C[C@@H](CC(=O)O)C1)[C@H]2C(=O)Nc1cc(F)c(C(C)(C)COC)c(F)c1",
    "STUDY_TARGET": "RORγt (Homo sapiens)",
    "inhibition at 3 µM": "99%"
  },
  {
    "STRUCTURE_AS_SMILES": "COc1ccc2c(n1)CCN(C(=O)[C@H]1C[C@@H](C(=O)OCc3ccccc3)C1)[C@H]2C(=O)Nc1cc(F)c2c(c1)CCC2(C)C",
    "STUDY_TARGET": "RORγt (Homo sapiens)",
    "inhibition at 3 µM": "102%"
  },
  {
    "STRUCTURE_AS_SMILES": "COCc1ccc2c(c1)CCN(C(=O)[C@H]1C[C@H](CC(=O)O)C1)[C@H]2C(=O)Nc1cc(F)c2c(c1)CCC2(C)C",
    "STUDY_TARGET": "RORγt (Homo sapiens)",
    "inhibition at 3 µM": "101%"
  },
  {
    "STRUCTURE_AS_SMILES": "COc1ccc2c(n1)CCN(C(=O)[C@H]1C[C@@H](C(=O)OCc3oc(=O)oc3C)C1)[C@H]2C(=O)Nc1cc(F)c2c(c1)CCC2(C)C",
    "STUDY_TARGET": "RORγt (Homo sapiens)",
    "inhibition at 3 µM": "102%"
  }
]
